B1: tRNA (parent)
chain: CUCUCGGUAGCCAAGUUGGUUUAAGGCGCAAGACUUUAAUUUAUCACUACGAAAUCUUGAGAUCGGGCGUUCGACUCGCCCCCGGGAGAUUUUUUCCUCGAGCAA

variants of: B1; assay: nonsense suppression (GFP-seq) (ratio to wild type); higher = more function; SUP4oc tRNA, yeast GFP reporter sort-seq
Fewer inactive variants are shown than the library holds.
Quantity measured: nonsense suppression
Numbers only.

State the recorded nonsense suppression for this entry: U17C G61C 0.769

So what's the measured nonsense suppression for this one? G78U C82U 0.105

Recorded nonsense suppression for A9U G61C , please? 0.197

Sample U4C A13C A24U — what was its nonsense suppression? 0.488

Value lookup for nonsense suppression; key = U21C A31G 1

Please look up its nonsense suppression: A33G G84U 0.222

Let us examine a further case.
Given the variant A9G A60G , what is its reported nonsense suppression? 0.222
